Would you kindly list inhibition at 0.01 µM for each of these compounds?
Target: ABL (Homo sapiens)
Construct: purchased Carna Biosciences, Inc
Sequence (P00519 whole entry): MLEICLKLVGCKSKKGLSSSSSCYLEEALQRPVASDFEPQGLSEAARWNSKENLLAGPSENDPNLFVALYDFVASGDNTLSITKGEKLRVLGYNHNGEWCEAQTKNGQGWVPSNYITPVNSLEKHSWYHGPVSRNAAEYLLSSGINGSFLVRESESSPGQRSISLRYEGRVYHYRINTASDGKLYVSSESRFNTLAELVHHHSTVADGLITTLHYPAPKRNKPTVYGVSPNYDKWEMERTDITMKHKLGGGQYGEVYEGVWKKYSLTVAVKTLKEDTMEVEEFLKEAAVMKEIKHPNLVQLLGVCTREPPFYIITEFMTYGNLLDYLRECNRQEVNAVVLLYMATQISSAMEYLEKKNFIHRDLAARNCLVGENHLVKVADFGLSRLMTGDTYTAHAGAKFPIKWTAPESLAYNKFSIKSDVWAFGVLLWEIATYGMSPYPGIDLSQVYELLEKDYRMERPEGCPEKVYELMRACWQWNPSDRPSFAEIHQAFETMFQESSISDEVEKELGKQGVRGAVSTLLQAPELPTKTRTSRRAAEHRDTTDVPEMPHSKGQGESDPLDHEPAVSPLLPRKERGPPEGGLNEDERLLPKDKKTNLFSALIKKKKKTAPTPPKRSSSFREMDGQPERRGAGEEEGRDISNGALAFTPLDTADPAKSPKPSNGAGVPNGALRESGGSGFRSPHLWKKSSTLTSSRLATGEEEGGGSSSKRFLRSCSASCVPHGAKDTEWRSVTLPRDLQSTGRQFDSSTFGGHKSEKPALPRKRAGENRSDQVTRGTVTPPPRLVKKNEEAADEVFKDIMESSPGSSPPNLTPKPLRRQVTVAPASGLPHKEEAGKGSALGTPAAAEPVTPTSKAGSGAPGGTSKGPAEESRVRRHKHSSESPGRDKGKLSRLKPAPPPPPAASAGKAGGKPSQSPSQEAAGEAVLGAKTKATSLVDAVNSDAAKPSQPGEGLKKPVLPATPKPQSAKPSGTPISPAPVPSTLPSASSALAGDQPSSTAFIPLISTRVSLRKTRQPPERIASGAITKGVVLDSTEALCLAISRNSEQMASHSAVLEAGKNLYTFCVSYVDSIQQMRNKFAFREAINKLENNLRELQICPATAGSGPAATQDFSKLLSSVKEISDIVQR
Assay: Off-chip Mobility Shift Assay, kinase inhibition
Format: biochemical
Conditions: at 10 nM; recombinant ABL

Ask: Please indicate inhibition at 0.01 µM recorded for [2H]c1cc(C)c(NC(=O)c2cnc(Nc3cc(N4CC[C@H](N)C4)nc(C)n3)s2)c(Cl)c1 [Compound VI]
Result: > 50%

Ask: Supply inhibition at 0.01 µM value. Item: [2H]c1cc(C)c(NC(=O)c2cnc(Nc3cc(N4CC[C@H](O)C4)nc(C)n3)s2)c(Cl)c1 [Compound IV]
Result: > 50%

Ask: Identify the reported inhibition at 0.01 µM for the following entry. [2H]c1cc(C)c(NC(=O)c2cnc(Nc3cc(N4CC[C@@H](O)C4)nc(C)n3)s2)c(Cl)c1 [Compound V]
Result: > 50%

Ask: Provide one value: measured inhibition at 0.01 µM of Cc1nc(Nc2ncc(C(=O)Nc3c(C)cccc3Cl)s2)cc(N2CC[C@@H](N)C2)n1 [Compound XIII]
Result: > 50%

* * *

I'd appreciate it if you could supply inhibition at 0.01 µM values for the items below.
Target: HCK (Homo sapiens)
Construct: purchased Carna Biosciences, Inc
Sequence (P08631 whole entry): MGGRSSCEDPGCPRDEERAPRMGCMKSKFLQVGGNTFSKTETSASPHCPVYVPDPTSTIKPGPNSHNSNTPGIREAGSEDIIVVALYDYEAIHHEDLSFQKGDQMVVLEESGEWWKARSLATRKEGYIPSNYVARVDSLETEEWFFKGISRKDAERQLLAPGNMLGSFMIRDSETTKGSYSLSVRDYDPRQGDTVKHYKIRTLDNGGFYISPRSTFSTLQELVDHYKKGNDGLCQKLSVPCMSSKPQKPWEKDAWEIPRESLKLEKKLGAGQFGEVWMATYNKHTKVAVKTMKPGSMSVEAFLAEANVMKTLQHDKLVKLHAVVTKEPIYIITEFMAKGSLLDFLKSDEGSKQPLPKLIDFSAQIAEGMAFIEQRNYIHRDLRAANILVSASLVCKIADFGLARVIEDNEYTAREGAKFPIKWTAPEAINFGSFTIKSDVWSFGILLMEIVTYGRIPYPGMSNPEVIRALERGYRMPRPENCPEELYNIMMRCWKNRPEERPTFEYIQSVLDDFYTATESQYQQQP
Assay: Off-chip Mobility Shift Assay, kinase inhibition
Format: biochemical
Conditions: at 10 nM; recombinant HCK; read-out: inhibition

Ask: Identify inhibition at 0.01 µM associated with the compound [2H]c1cc(C)c(NC(=O)c2cnc(Nc3cc(N4CCCCC4)nc(C)n3)s2)c(Cl)c1 [Compound I]
Result: > 50%

Ask: Please indicate inhibition at 0.01 µM recorded for Cc1nc(Nc2ncc(C(=O)Nc3c(C)cccc3Cl)s2)cc(N2CC[C@H](N)C2)n1 [Compound XII]
Result: > 50%

Ask: Answer with the recorded inhibition at 0.01 µM for the compound listed here: [2H]c1cc(C)c(NC(=O)c2cnc(Nc3cc(N4CC[C@H](N)C4)nc(C)n3)s2)c(Cl)c1 [Compound VI]
Result: > 50%

Ask: Output measured inhibition at 0.01 µM for this item: Cc1nc(Nc2ncc(C(=O)Nc3c(C)cccc3Cl)s2)cc(N2CC[C@@H](O)C2)n1 [Compound XI]
Result: > 50%

* * *

Biological target: SRC (Homo sapiens, UniProt P12931)
Construct: purchased Carna Biosciences, Inc
Sequence (P12931 whole entry): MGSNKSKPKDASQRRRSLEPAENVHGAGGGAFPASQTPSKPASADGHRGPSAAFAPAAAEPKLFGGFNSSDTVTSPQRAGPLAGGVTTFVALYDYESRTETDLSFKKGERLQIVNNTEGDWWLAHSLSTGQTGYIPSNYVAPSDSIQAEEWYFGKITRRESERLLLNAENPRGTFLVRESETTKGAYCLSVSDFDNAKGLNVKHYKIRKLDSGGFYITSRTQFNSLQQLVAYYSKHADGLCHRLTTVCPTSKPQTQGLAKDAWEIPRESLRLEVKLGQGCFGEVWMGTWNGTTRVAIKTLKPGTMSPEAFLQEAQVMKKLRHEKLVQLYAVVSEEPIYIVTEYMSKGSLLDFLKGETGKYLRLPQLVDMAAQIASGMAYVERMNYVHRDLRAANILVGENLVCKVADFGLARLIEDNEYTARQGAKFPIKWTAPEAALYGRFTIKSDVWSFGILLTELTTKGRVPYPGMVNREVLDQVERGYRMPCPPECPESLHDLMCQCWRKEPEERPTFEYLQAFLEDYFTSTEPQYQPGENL
Test: Off-chip Mobility Shift Assay, kinase inhibition
Type: biochemical
Details: at 10 nM; recombinant SRC
metric-name: inhibition at 0.01 µM

Ask: Give inhibition at 0.01 µM for "[2H]c1cc(C)c(NC(=O)c2cnc(Nc3cc(N4CC[C@@H](N)C4)nc(C)n3)s2)c(Cl)c1"
Result: > 50%

Ask: Indicate its recorded inhibition at 0.01 µM; the compound in question is "[2H]c1cc(C)c(NC(=O)c2cnc(Nc3cc(N4CCCCC4)nc(C)n3)s2)c(Cl)c1"
Result: > 50%

Ask: Fill in inhibition at 0.01 µM for record "Cc1nc(Nc2ncc(C(=O)Nc3c(C)cccc3Cl)s2)cc(N2CC[C@H](O)C2)n1"
Result: > 50%

Ask: Give the reported inhibition at 0.01 µM for this compound. "Cc1nc(Nc2ncc(C(=O)Nc3c(C)cccc3Cl)s2)cc(N2CCCCC2)n1"
Result: > 50%

* * *

Consider the following compounds; for each one, report its V.
Test: Pharmacokinetics in Sprague-Dawley rats, 2-in-1 dosing
Type: in vivo
Conditions: rat, intravenous 1 mg/kg, Table 3; co-dosed with compound X
Give the value in L/kg but do not write L/kg after it.

Ask: Write down V measured for item "Cc1nc(Nc2ncc(C(=O)Nc3c(C)cccc3Cl)s2)cc(N2CC[C@H](O)C2)n1"
Result: 1

Ask: Query V for "Cc1nc(Nc2ncc(C(=O)Nc3c(C)cccc3Cl)s2)cc(N2CC[C@@H](O)C2)n1"
Result: 1

Ask: Output V of Cc1nc(Nc2ncc(C(=O)Nc3c(C)cccc3Cl)s2)cc(N2CCN(CCO)CC2)n1 [Dasatinib, reference compound]
Result: 2

Ask: Entry "[2H]c1cc(C)c(NC(=O)c2cnc(Nc3cc(N4CCN(CCO)CC4)nc(C)n3)s2)c(Cl)c1" needs its V filled in; supply it.
Result: 3

* * *

Assignment: determine reported inhibition at 0.01 µM for the given molecules.
Molecular target: EPHA1 (Homo sapiens)
Construct: purchased Carna Biosciences, Inc
Sequence (P21709 26-976): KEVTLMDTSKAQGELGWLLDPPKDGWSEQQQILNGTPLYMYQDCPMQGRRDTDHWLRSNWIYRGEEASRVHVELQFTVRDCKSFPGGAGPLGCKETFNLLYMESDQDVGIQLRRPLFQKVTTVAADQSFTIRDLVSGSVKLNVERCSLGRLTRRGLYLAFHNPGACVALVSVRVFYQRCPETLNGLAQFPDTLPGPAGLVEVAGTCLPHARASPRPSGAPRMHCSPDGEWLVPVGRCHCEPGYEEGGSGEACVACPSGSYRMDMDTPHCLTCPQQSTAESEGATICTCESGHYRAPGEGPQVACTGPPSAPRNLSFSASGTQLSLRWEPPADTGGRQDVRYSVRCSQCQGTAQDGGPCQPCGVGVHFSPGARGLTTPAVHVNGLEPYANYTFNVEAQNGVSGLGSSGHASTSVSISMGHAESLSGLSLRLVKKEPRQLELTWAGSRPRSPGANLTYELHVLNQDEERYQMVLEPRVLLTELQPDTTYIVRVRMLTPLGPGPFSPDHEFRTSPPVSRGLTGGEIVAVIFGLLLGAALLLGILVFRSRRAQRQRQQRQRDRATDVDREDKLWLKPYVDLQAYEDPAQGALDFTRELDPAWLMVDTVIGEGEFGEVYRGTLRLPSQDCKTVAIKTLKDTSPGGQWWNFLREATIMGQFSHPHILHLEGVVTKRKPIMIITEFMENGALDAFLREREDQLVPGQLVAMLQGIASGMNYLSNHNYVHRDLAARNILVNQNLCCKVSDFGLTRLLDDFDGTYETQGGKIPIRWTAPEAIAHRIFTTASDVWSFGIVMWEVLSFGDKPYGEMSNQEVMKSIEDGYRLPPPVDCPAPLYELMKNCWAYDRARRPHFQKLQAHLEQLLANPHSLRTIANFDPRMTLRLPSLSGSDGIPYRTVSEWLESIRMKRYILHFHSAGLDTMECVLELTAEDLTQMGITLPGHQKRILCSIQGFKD
Test: Off-chip Mobility Shift Assay, kinase inhibition
Format: biochemical
Conditions: at 10 nM; recombinant EPHA1

Ask: For "[2H]c1cc(C)c(NC(=O)c2cnc(Nc3cc(N4CC[C@@H](O)C4)nc(C)n3)s2)c(Cl)c1" , write its inhibition at 0.01 µM.
Result: > 50%

Ask: State, in one line, measured inhibition at 0.01 µM of "Cc1nc(Nc2ncc(C(=O)Nc3c(C)cccc3Cl)s2)cc(N2CC[C@H](N)C2)n1"
Result: > 50%

Ask: Determine its reported inhibition at 0.01 µM: "Cc1nc(Nc2ncc(C(=O)Nc3c(C)cccc3Cl)s2)cc(N2CCCCC2)n1"
Result: > 50%

Ask: Read the entry "[2H]c1cc(C)c(NC(=O)c2cnc(Nc3cc(N4CCCCC4)nc(C)n3)s2)c(Cl)c1" and write its reported inhibition at 0.01 µM.
Result: > 50%

* * *

Biological target: ACK (Homo sapiens)
Construct: purchased Carna Biosciences, Inc
Sequence (Q07912 whole entry): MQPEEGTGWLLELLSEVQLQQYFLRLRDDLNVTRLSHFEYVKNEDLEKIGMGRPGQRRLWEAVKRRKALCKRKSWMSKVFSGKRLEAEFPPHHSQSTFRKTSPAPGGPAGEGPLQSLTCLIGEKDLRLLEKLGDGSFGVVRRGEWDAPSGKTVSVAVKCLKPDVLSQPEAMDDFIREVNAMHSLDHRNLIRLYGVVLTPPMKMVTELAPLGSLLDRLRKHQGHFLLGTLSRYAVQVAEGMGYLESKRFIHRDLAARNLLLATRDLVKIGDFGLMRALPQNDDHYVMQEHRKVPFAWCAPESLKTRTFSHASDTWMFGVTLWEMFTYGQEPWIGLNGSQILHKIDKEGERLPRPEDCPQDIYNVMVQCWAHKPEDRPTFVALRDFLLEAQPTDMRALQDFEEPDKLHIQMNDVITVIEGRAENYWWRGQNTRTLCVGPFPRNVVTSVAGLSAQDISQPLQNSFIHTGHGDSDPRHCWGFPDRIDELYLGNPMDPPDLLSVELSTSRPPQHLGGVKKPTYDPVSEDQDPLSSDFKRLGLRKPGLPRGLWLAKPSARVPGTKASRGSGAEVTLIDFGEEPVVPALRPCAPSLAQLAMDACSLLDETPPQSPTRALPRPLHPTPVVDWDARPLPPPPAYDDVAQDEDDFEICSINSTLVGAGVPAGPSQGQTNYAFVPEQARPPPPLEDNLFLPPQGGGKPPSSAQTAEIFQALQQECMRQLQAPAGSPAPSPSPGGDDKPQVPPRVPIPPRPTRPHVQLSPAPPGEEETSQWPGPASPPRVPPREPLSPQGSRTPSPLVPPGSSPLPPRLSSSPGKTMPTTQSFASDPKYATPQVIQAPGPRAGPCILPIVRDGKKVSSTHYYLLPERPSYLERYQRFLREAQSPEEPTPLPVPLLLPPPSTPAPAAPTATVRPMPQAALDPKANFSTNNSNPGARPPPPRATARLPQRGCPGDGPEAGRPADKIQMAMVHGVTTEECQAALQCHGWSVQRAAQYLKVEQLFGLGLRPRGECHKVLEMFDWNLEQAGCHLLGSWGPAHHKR
Assay: Off-chip Mobility Shift Assay, kinase inhibition
Type: biochemical
Conditions: at 10 nM; recombinant ACK
metric-name: inhibition at 0.01 µM

Ask: Fill in reported inhibition at 0.01 µM for this entry: Cc1nc(Nc2ncc(C(=O)Nc3c(C)cccc3Cl)s2)cc(N2CCCCC2)n1 [Compound VIII]
Result: > 50%

Ask: Look up and state reported inhibition at 0.01 µM for [2H]c1cc(C)c(NC(=O)c2cnc(Nc3cc(N4CC[C@@H](O)C4)nc(C)n3)s2)c(Cl)c1 [Compound V]
Result: > 50%

Ask: Given [2H]c1cc(C)c(NC(=O)c2cnc(Nc3cc(N4CCCCC4)nc(C)n3)s2)c(Cl)c1 [Compound I] , respond with its inhibition at 0.01 µM.
Result: > 50%

Ask: Output inhibition at 0.01 µM of Cc1nc(Nc2ncc(C(=O)Nc3c(C)cccc3Cl)s2)cc(N2CC[C@H](O)C2)n1 [Compound X]
Result: > 50%

Ask: Assign inhibition at 0.01 µM to the following record: [2H]c1cc(C)c(NC(=O)c2cnc(Nc3cc(N4CCC(O)CC4)nc(C)n3)s2)c(Cl)c1 [Compound II]
Result: > 50%

Ask: Indicate its recorded inhibition at 0.01 µM; the compound in question is [2H]c1cc(C)c(NC(=O)c2cnc(Nc3cc(N4CC[C@@H](N)C4)nc(C)n3)s2)c(Cl)c1 [Compound VII]
Result: > 50%

Ask: State, in one line, measured inhibition at 0.01 µM of Cc1nc(Nc2ncc(C(=O)Nc3c(C)cccc3Cl)s2)cc(N2CCC(O)CC2)n1 [Compound IX]
Result: > 50%

Ask: Quickly give me recorded inhibition at 0.01 µM for Cc1nc(Nc2ncc(C(=O)Nc3c(C)cccc3Cl)s2)cc(N2CC[C@H](N)C2)n1 [Compound XII]
Result: > 50%

Ask: Return inhibition at 0.01 µM (reported value) for this compound: [2H]c1cc(C)c(NC(=O)c2cnc(Nc3cc(N4CC[C@H](N)C4)nc(C)n3)s2)c(Cl)c1 [Compound VI]
Result: > 50%

Ask: Assign inhibition at 0.01 µM to the following record: Cc1nc(Nc2ncc(C(=O)Nc3c(C)cccc3Cl)s2)cc(N2CC[C@@H](N)C2)n1 [Compound XIII]
Result: > 50%

Ask: Answer with the recorded inhibition at 0.01 µM for the compound listed here: [2H]c1cc(C)c(NC(=O)c2cnc(Nc3cc(N4CC[C@H](O)C4)nc(C)n3)s2)c(Cl)c1 [Compound IV]
Result: > 50%

Ask: Tell me its inhibition at 0.01 µM given Cc1nc(Nc2ncc(C(=O)Nc3c(C)cccc3Cl)s2)cc(N2CC[C@@H](O)C2)n1 [Compound XI] as the entry.
Result: > 50%

Recorded values, source patent US10479786B2.
